Each entry below carries its recorded log10 TGI.
# Test system: SK-MEL-2 melanoma
# ASSAY PROTOCOL: NCI tumour cell line growth inhibition, 48 h
Log10 applied to TGI; unit prior to transform: µM.

COMPOUND	PARAMETER MEASURED	EXPERIMENTAL VALUE
ClCc1cccc(Cn2cnc3c(Cl)nc(Cl)nc32)c1	log10 TGI	0.65

Q: Could you tell me which log10 TGI is on file for `N#Cc1c(Cl)c2cccnc2n2c1nc1ccccc12` ?
Ans: 1.37

Q: What value of measured log10 TGI is listed for `COc1ccc(/C=C2\C[C@H]3[C@@H]4CCC5=C/C(=N/O)CC[C@]5(C)[C@H]4CC[C@]3(C)\C2=N\O)cc1` ?
Ans: 1.86

Q: Return reported log10 TGI; argument: `Cc1cc(N/N=C/c2nc(-c3ccc(Cl)cc3)oc2C)c2cc(Br)ccc2n1`
Ans: 1.51

Q: So what's the measured log10 TGI for this one? COc1cccc2c1C(=O)c1c(O)c3c(c(O)c1C2=O)C[C@@](O)(C(=O)COC(=O)c1ccccc1)C[C@@H]3OC1CC(N)C(O)C(C)O1 (stereo not given in full)
Ans: 0.30

Q: What log10 TGI value was documented for this compound, `O=C(c1ccc2ccccc2c1)c1nc2cc(F)ccc2[n+]([O-])c1C(F)(F)F` ?
Ans: 1.55

----------
# System: HOP-92 NSCLC
# ASSAY PROTOCOL: NCI tumour cell line growth inhibition, 48 h
// reported log10 TGI per item
Hello, just confirming the data are log10 of TGI with units of µM.

Below, 3 molecules whose answers are already recorded.
SMILES RECORD	log10 TGI
c1ccc(-c2nc3n(c2-c2ccc4c(c2)OCO4)CCC3)nc1	1.32
c1cc2c3c(c1)c1cc4c(cc1c[n+]3CC2)OCO4	2.03
O=C(c1ccc2ccccc2c1)c1nc2cc(F)ccc2[n+]([O-])c1C(F)(F)F	1.56

Q: Any idea what its log10 TGI is? The molecule is `C=C1C(=O)O[C@H]2[C@H]1CC/C(COC(=O)NCc1ccc(Cn3c(=O)sn(CCCCC)c3=O)cc1)=C\CC[C@@]1(C)O[C@@H]21`
Ans: 0.48

Q: Given the molecule `CCN1[C@@H](C(=O)NC23CCC(C(=O)O)(CC2)CC3)[C@H](c2cccc(Cl)c2F)[C@]2(C(=O)Nc3cc(Cl)ccc32)C12CCCCC2` , what is its reported log10 TGI?
Ans: 0.81

Q: Form field: reported log10 TGI of `C=C1C(=O)O[C@H]2[C@H]1CC/C(COC(=O)N[C@H]1C[C@H](O[C@H]3C[C@](O)(C(=O)CO)Cc4c(O)c5c(c(O)c43)C(=O)c3c(OC)cccc3C5=O)O[C@@H](C)[C@H]1O)=C\CC[C@@]1(C)O[C@@H]21`
Ans: 0.36

Q: So what does the record say about log10 TGI for `CN(C)CCCOc1cccc(NC2=C(Cl)C(=O)C(Nc3cccc(OCCCN(C)C)c3)=C(Cl)C2=O)c1` ?
Ans: 0.11

----------
# Tested on: CCRF-CEM leukemia
# ASSAY PROTOCOL: NCI tumour cell line growth inhibition, 48 h
Examples of compounds with documented TGI follow.

// worked examples, TGI included
>>> df
                                   compound  experimental_value
0  Oc1[nH]c2ccccc2c1C1=Nc2ccccc2/C1=N\OCCOC1OCC(O)C(O)C1O (stereo not drawn)            > 100 µM
1               N=c1c2ccccc2sc2nc3ccccc3n12            > 100 µM
2  COc1ccc2c(O)c(S(=O)(=O)c3ccc(C)cc3)c(=O)oc2c1OC            > 100 µM
3  CC[C@@H](CCCCC1CC[C@H]2CC(=O)C[C@@H]12)OC (stereo partly drawn)            > 100 µM
4           CCOP(=O)(OCC)/C(C#N)=C/c1ccccn1            > 100 µM
5                        OC1=CN=COc2ccccc21            > 100 µM
6        O=C(N/N=C\c1cccc2ccccc12)Nc1ccccc1            > 100 µM
7  COc1ccc(C2=NC(=O)NC2c2ccc(OC)cc2)cc1 (stereo not drawn)            > 100 µM
8  COc1cc(C(=O)Oc2c(C(C)=O)sc3c2c(=O)n(-c2ccccc2)c(=S)n3-c2ccccc2)cc(OC)c1OC             45.8 µM
9          COc1cc(/C=N/N=C(\N)NO)cc(OC)c1OC            > 100 µM

Q: Need TGI of `CN(C)C(=S)/N=c1\ssc(=S)n1C` , thanks.
Ans: > 100 µM

Q: Can you look up the measured TGI of CC1(C)OCC(C2OC3OC(C)(C)OC3C2c2ccccc2)O1 (stereo not drawn) for me?
Ans: > 100 µM

----------
TGI overview
# System: NCI-H226 lung
# ASSAY PROTOCOL: NCI tumour cell line growth inhibition, 48 h

Please review the following examples before continuing.
                                   molecule  experimental_value
0  O=C(c1ccccc1)N1C(=O)N(c2ccccc2)C(=Nc2ccccc2)C1=Nc1ccccc1            > 100 µM
1  COc1cc(OC)c2sc(-c3ccc(-n4cncc4-c4ccc(OC)c(OC)c4)cc3)nc2c1            > 100 µM
2  CCCCCCCCC/C=C1/CC(CO)(COC(=O)CC(C(C)C)C(C)C)OC1=O (stereo unspecified)             21.5 µM

Switching to the query record.
Q: For the molecule shown here, CCOC(=O)C(=CNc1ccc(N(C2=NCC(C)S2)c2ccc(F)c(Cl)c2)cc1)C(=O)OCC (stereo unspecified) , give the reported TGI.
Ans: 36.6 µM

----------
# System: SN12C renal
# ASSAY PROTOCOL: NCI tumour cell line growth inhibition, 48 h
Consider the following compounds and their measured TGI readings.

The cases that follow already have their TGI on record.
COMPOUND	TARGET OR TEST SYSTEM	PARAMETER MEASURED	EXPERIMENTAL VALUE
O=C(c1cccs1)c1nccc2c1cnc1ccccc12	SN12C renal	TGI	> 100 µM
CO[C@H]1/C=C/O[C@@]2(C)Oc3c(C)c(O)c4c(O)c(c(/C=N/N5CCN(C)CC5)c(O)c4c3C2=O)NC(=O)/C(C)=C\C=C\[C@H](C)[C@H](O)[C@@H](C)[C@@H](O)[C@@H](C)[C@H](OC(C)=O)[C@@H]1C	SN12C renal	TGI	> 100 µM
N#Cc1c(Cl)c2cccnc2n2c1nc1ccccc12	SN12C renal	TGI	3.7 µM
c1ccc(-c2nc3n(c2-c2ccc4c(c2)OCO4)CCC3)nc1	SN12C renal	TGI	> 25 µM
CCCC1(CN2c3ccccc3Sc3ccc(Cl)cc32)CCN(CC)C1 (stereo not drawn)	SN12C renal	TGI	8.74 µM
O=C1C(CO)=C[C@H](O)[C@H]2O[C@@H]12	SN12C renal	TGI	265 µM
COc1cc(C2c3cc4c(cc3OC(NNS(=O)(=O)c3ccc(C)cc3)C2C)OCO4)cc(OC)c1OC (stereo not drawn)	SN12C renal	TGI	> 71.4 µM
CCCCCCCCCc1ccc(OCCOCCOCCOCCOCCOCCOCCOCCOCCO)cc1	SN12C renal	TGI	1.59 µM

Q: Reported TGI for CC(=O)OC(C(=O)[O][Sn]([CH3])([CH3])[CH3])c1ccccc1 (stereo not drawn) : what is it?
Ans: > 100 µM

Q: So what's the measured TGI for this one? `O=C1CCC[C@H]2O[C@@H](COC(=O)c3ccccc3)C[C@H]2O1`
Ans: > 100 µM

Q: Item COc1ccc(C2=NC(=O)NC2c2ccc(OC)cc2)cc1 (stereo not drawn) has what recorded TGI?
Ans: > 100 µM

Q: Entry under review: `COc1ccc(O)c(C(=O)CCC(=O)O)c1` . Reported TGI?
Ans: > 100 µM

----------
# Test system: UACC-62 melanoma
# ASSAY PROTOCOL: NCI tumour cell line growth inhibition, 48 h
Threshold check on TGI: at or above 50 µM gives 1, strictly below gives 0.

Examples from the recorded data:
In [3]: df
Out[3]:
                                   compound  class_name
0  CC(NC(=O)Cc1ccc(C(F)(F)P(=O)(OCc2ccc([N+](=O)[O-])o2)N(C)CCCCCl)cc1)c1ccc(OCC2CCCCC2)c(C(N)=O)c1 (centres undefined)           0
1  COc1cc(C2=NN(C(C)=O)C(c3cc(OC)c(OC)c(OC)c3)C2)ccc1O (centres undefined)           1

Q: Please indicate if the recorded TGI for `CCOC(=O)c1sc2c(c1OC(=O)c1cc(OC)c(OC)c(OC)c1)c(=O)n(-c1ccccc1)c(=S)n2-c1ccccc1` meets or exceeds 50 µM.
Ans: 1

Q: Exam item: decide whether the reported TGI for `COc1cc(C(=O)Oc2c(C(C)=O)sc3c2c(=O)n(-c2ccccc2)c(=S)n3-c2ccccc2)cc(OC)c1OC` is at least 50 µM.
Ans: 0

Q: Please indicate if the recorded TGI for CC(C)(C)OC(=O)N1NC(c2ccccc2)CC1c1ccccc1 (centres undefined) meets or exceeds 50 µM.
Ans: 1

Q: Confirm if TGI reported for the compound Cc1ccc(S(=O)C[C@](NC(=O)OCc2ccccc2)(Sc2ccccc2)C(F)F)cc1 (some centres undefined) is 50 µM or above.
Ans: 0

Q: Decide: is the reported value of TGI for Cc1ccc(O)c(C2=CC3=NNC(=O)C3C(c3cccc(Cl)c3)C2)c1 (centres undefined) equal to or greater than 50 µM?
Ans: 1

Q: TGI >= 50 µM for CC1CN=C(Nc2cccc(F)c2)S1 (centres undefined) ?
Ans: 1
